Data origin: patent US20130195869A1

Target: T1, human native CCR7 on peripheral blood mononuclear cells of a healthy person (human, UniProt P32248 25-378)
T1 construct: whole, on cells; Endogenous receptor on primary cells of a donor; kept apart from the recombinant receptor on CHO-K1 cells; also called CCR7 on PBMC
T1 sequence (looked up): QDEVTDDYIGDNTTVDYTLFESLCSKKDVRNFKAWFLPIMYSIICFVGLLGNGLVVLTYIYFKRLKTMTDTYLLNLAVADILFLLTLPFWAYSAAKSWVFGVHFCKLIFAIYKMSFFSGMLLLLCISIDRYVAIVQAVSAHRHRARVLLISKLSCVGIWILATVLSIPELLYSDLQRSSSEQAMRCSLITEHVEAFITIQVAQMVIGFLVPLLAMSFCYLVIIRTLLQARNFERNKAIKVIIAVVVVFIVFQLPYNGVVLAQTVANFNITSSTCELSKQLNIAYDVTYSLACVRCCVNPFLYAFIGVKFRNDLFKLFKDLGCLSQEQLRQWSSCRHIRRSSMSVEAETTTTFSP
Experiment: flow cytometry, 0.5 µg antibody on 3×10^5 human PBMC, FITC anti-mouse IgG
Simple rule here: Percentage of specifically binding cells less than 40% is Met, otherwise Not met.

Ask: Consider anti-human CCR7 monoclonal antibody R7-25 (hybridoma FERM BP-11375) (antibody, IgG1, V domains shown, Mouse monoclonal antibody from hybridoma) VH: EVMVVESGPGLMKPSQSLSLTCAVTGYSITSGYDWHWIRHFPGNILEWMGYINYSGSTNYKPSLKSRISITLDTSKNHFFLKLSSVTTEDTATYYCARGSYYSYEFAYWGQGTLVTVSA VL: DIVMSQSPSSLAVSVGEKVTMSCKSSQRLLYYSTQKNYLAWYQQKPGQSPKLLIFWASTRESGVPNRFTGSGSGTDFTLTINSVKAEDLAVYYCQQYYTYPTFGGGTK . Does its Percentage of specifically binding cells lie strictly below 40%?
Result: Not met

Ask: Consider anti-human CCR7 monoclonal antibody R7-02 (hybridoma FERM BP-11404) (antibody, IgG2a, V domains shown, Mouse monoclonal antibody from hybridoma) VH: QVQLQQSGAELERPGASVKLSCTASGFNIRDDYVHWVKQRPEQGLEWIGRIDPANGNTKYGPKFQAKATLTADTSSNTAYLQLGSLTSEDTAVYYCTRSFYDYDLFVPWGQGTLVTVSA VL: DAVVTQESALTTSPGETVTLTCRSSTGAVTKNNFANWVQEKPDHLFTGLIGGNNIRAPGVPARFSGSLIGDKAALSITGAQTEDEAIYFCALWYSNHWVFGGGTK . Does its Percentage of specifically binding cells lie strictly below 40%?
Result: Not met

Ask: Consider anti-human CCR7 monoclonal antibody R7-01 (hybridoma FERM BP-11369) (antibody, IgG1, V domains shown, Mouse monoclonal antibody purified from hybridoma supernatant on protein G) VH: EVQLQQSGPELVKPGTSVKMSCKGSGYTFTDYYINWVRQSHGKSLEWIGRVNPGNGGTSYNQRFKGKATLTVDKFLSTAFMQLNSLTSEDSAVYFCARTGTYYNYDRGGFAYWGHGTLVTVSA VL: DVLLTQSPVSLPVSLGDQASISCRCSQNIVHINGNTYLEWFLQKPGQSPKLLIYKVSNRFSGVPDRFSGSGSGTDFTLKIRRVEAEDLGVYYCFQGSHVPHTFGSGTK . Does its Percentage of specifically binding cells lie strictly below 40%?
Result: Met

Ask: Consider anti-human CCR7 monoclonal antibody R7-47 (hybridoma FERM BP-11376) (antibody, IgG1, V domains shown, Mouse monoclonal antibody from hybridoma) VH: EVQLQQSGPDLVKPGTSVKISCKASGYKFTDFNMDWVRQRHGKSLEWIGDVNPQNGEIFYNQKFRGKATLTVVKSSSTTYLELRSLTSEDTAVYFCTRLEFDYTGSNGFAYWGQGTLVTVSA VL: DILMTQTPLSLPVSLGDQASISCRSSQTLVHRNGNTYLEWYLQKPGQSPKLLIYKVSNRFSGVPDRFSGRGSGTDFTLKISRVEAEDQGIYYCFQGSHDPWTFGGGTK . Does its Percentage of specifically binding cells lie strictly below 40%?
Result: Not met
